# Procedure Details: solvent given as SMILES
# Applied Conditions: in Cc1ccccc1
Measurement Label: emission maximum

Worked set:
# input Complete the entry with emission maximum for N#CC1=c2c3cccc4cccc(c43)n2[B-](F)(F)[n+]2ccccc21
# output 535 nm

# input Note emission maximum for the compound shown: CCOC(=O)COc1ccc(/C=C/C2=C3c4ccccc4C(c4[nH]c(C)cc4C)=[N+]3[B-](F)(F)n3c(/C=C/c4ccc(OCC(=O)OCC)cc4)cc(C)c32)cc1
# output 735 nm

# input Quote emission maximum reported for Cc1ccc(N(c2ccc(C)cc2)c2c3ccccc3c(N(c3ccc(C)cc3)c3ccc(C)cc3)c3ccccc23)cc1 please.
# output 533 nm

# input Please list emission maximum recorded for the compound CC1=C(Cc2ccccc2)C(C)=[N+]2C1=C(C)c1c(C)c(-c3csc(N4CCOCC4)n3)c(C)n1[B-]2(F)F
# output 603 nm

# input Tell me its emission maximum given C1=C(c2ccccc2)C2=Nc3c(-c4ccccc4)cc4n3[B-]3(Oc5ccccc5C1=[N+]23)Oc1ccccc1-4 (centres undefined) as the entry.
# output 746 nm

***
# input Please report the measured emission maximum for O=C(c1ccccc1)c1cc2ccc1CCc1ccc(cc1-c1ccc(N(c3ccccc3)c3ccccc3)cc1)CC2
# output 492 nm

# input Answer with the recorded emission maximum for the compound listed here: CCCCCCc1ccc2c(/C=N/c3cc(/N=C/c4c(O)ccc5cc(CCCCCC)ccc45)cc(/N=C/c4c(O)ccc5cc(CCCCCC)ccc45)c3)c(O)ccc2c1
# output 507 nm

# input Return the recorded emission maximum value; entry: CCCCc1ccc(-n2c3c(c4c2c2c(n4-c4ccc(CCCC)cc4)-c4cc(F)ccc4NB2c2ccccc2)B(c2ccccc2)Nc2ccc(F)cc2-3)cc1
# output 406 nm

====

Recorded emission maximum by entry
# Procedure Details: solvent given as SMILES
# Applied Conditions: in ClCCl
Entry format: amount then unit.

# input // Input: CCOc1ccc(/C=C/c2nc(N3CCOCC3)c3c([n+]2[O-])CCCC3)cc1 . Output its emission maximum only.
# output 515 nm

# input Indicate its recorded emission maximum; the molecule in question is Cc1cc2sccc2c2[nH]c3ccccc3c12
# output 346 nm

# input Please give the documented emission maximum of CC(=O)O[B-]1(OC(C)=O)OC(/C=C/c2cccc3ccccc23)=CC(/C=C/c2cccc3ccccc23)=[O+]1
# output 554 nm

# input Recall and state the measured emission maximum for CCCCCCCCCCCCC(CCCCCCCCCC)Cn1c2cc(/C=C/C=C/c3nc4ccccc4s3)c3cccc4c5cccc6c(/C=C/C=C/c7nc8ccccc8s7)cc1c(c65)c2c34 (centres undefined) .
# output 612 nm

# input For the molecule COc1ccc(C2=[N+]3C(=Nc4c(-c5ccccc5)c(Br)c(-c5ccc(OC)cc5)n4[B-]3(F)F)C(c3ccccc3)=C2Br)cc1 , give its measured emission maximum value.
# output 714 nm

# input In one line, give reported emission maximum of the entry CC(C)c1cccc(C(C)C)c1N1C(=O)c2cccc3c(Oc4ccccc4)ccc(c23)C1=O .
# output 425 nm

# input Assign emission maximum to the following record: Cc1cn2cc(-c3ccc(-c4ccccc4)cc3)[n-][n+]2c1
# output 466 nm

# input Fill in reported emission maximum for this entry: CCCCCN(c1ccccc1)c1ccc2c(c1)C(CC)(CC)c1cc(/C=C/c3ccc(/C=C(\C#N)C(=O)O)s3)ccc1-2
# output 584 nm

Others:
# input For CCCCCCOc1cc(N(CC)CC)ccc1/C=C/C(=C(C#N)C#N)c1ccc(N(c2ccccc2)c2ccccc2)cc1 , write its emission maximum.
# output 595 nm

# input Entry c1cc2ccc3ccc(OP4(Oc5ccc6ccc7cccc8ccc5c6c78)=NP(Oc5ccc6ccc7cccc8ccc5c6c78)(Oc5ccc6ccc7cccc8ccc5c6c78)=NP(Oc5ccc6ccc7cccc8ccc5c6c78)(Oc5ccc6ccc7cccc8ccc5c6c78)=N4)c4ccc(c1)c2c34 needs its emission maximum filled in; supply it.
# output 459 nm

# input Give the reported value of emission maximum for this record: CCCCCCC1(CCCCCC)c2cc(-c3nc(-c4ccc5c(c4)C(CCCCCC)(CCCCCC)c4cc(N6c7ccccc7Oc7ccccc76)ccc4-5)nc(-c4ccc5c(c4)C(CCCCCC)(CCCCCC)c4cc(N6c7ccccc7Oc7ccccc76)ccc4-5)n3)ccc2-c2ccc(N3c4ccccc4Oc4ccccc43)cc21
# output 621 nm

# input Output emission maximum of CC(C)(C)c1ccc2c(c1)c1cc(C(C)(C)C)ccc1n2-c1ccc(C(=O)c2ccc(-n3c4ccc(C(C)(C)C)cc4c4cc(C(C)(C)C)ccc43)nc2)cn1
# output 532.91 nm

# input Report emission maximum for CC1=C(Cc2ccccc2)C(C)=[N+]2C1=C(C)c1c(C)c(-c3csc(N4CCOCC4)n3)c(C)n1[B-]2(F)F
# output 535 nm

# input Given O=C1c2cc3ccccc3cc2C2=Nc3ccc4ccccc4[n+]3[B-](F)(F)N12 , respond with its emission maximum.
# output 430 nm
